Listing: total protein half-life in vivo of selected sequences
- experiment.notes: total protein half-life in vivo (active degradation + dilution); higher = more stable protein
- conditions: E. coli NCM3722 delta-hslV; growth: N-lim chemostat; doubling time 6 h
Give a bare numeral; the unit h is implied.

>>> endpoint_result("MMKTVKHLLCCAIAASALISTGVHAASWKDALSSAASELGNQNSTTQEGGWSLASLTNLLSSGNQALSADNMNNAAGILQYCAKQKLASVTDAENIKNQVLEKLGLNSEEQKEDTNYLDGIQGLLKTKDGQQLNLDNIGTTPLAEKVKTKACDLVLKQGLNFIS")
2.68
>>> endpoint_result("MSEMIYGIHAVQALLERAPERFQEVFILKGREDKRLLPLIHALESQGVVIQLANRQYLDEKSDGAVHQGIIARVKPGRQYQENDLPDLIASLDQPFLLILDGVTDPHNLGACLRSADAAGVHAVIVPKDRSAQLNATAKKVACGAAESVPLIRVTNLARTMRMLQEENIWIVGTAGEADHTLYQSKMTGRLALVMGAEGEGMRRLTREHCDELISIPMAGSVSSLNVSVATGICLFEAVRQRS")
5.39
>>> endpoint_result("MMDNMQTEAQPTRTRILNAAREIFSENGFHSASMKAICKSCAISPGTLYHHFISKEALIQAIILQDQERALARFREPIEGIHFVDYMVESIVSLTHEAFGQRALVVEIMAEGMRNPQVAAMLKNKHMTITEFVAQRMRDAQQKGEISPDINTAMTSRLLLDLTYGVLADIEAEDLAREASFAQGLRAMIGGILTAS [P0ACT6]")
4.39
>>> endpoint_result("MFDIGFSELLLVFIIGLVVLGPQRLPVAVKTVAGWIRALRSLATTVQNELTQELKLQEFQDSLKKVEKASLTNLTPELKASMDELRQAAESMKRSYVANDPEKASDEAHTIHNPVVKDNEAAHEGVTPAAAQTQASSPEQKPETTPEPVVKPAADAEPKTAAPSPSSSDKP")
5.04

Ask: Name the recorded total protein half-life in vivo for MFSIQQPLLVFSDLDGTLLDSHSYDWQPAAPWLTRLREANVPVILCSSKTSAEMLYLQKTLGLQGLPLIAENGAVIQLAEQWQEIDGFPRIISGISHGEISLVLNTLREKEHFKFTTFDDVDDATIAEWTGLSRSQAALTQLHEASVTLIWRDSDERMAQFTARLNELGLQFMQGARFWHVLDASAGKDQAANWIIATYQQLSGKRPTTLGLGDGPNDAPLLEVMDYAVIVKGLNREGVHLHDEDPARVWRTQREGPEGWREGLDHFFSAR .
Result: 4.17

Ask: Name the recorded total protein half-life in vivo for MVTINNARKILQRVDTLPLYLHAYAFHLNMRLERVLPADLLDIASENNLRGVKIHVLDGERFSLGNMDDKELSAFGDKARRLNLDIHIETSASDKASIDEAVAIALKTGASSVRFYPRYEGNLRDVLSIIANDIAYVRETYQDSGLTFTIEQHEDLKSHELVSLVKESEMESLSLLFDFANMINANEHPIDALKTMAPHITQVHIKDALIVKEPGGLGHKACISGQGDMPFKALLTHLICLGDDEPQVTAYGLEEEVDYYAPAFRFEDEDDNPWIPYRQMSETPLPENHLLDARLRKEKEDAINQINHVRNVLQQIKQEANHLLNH .
Result: 2.28

Ask: Name the recorded total protein half-life in vivo for MDLRDLKTFLHLAESRHFGRSARAMHVSPSTLSRQIQRLEEDLGQPLFVRDNRTVTLTEAGEELRVFAQQTLLQYQQLRHTIDQQGPSLSGELHIFCSVTAAYSHLPPILDRFRAEHPSVEIKLTTGDAADAMEKVVTGEADLAIAGKPETLPGAVAFSMLENLAVVLIAPALPCPVRNQVSVEKPDWSTVPFIMADQGPVRRRIELWFRRNKISNPMIYATVGGHEAMVSMVALGCGVALLPEVVLENSPEPVRNRVMILERSDEKTPFELGVCAQKKRLHEPLIEAFWKILPNHK .
Result: 5.87

Ask: Name the recorded total protein half-life in vivo for MRILLSNDDGVHAPGIQTLAKALREFADVQVVAPDRNRSGASNSLTLESSLRTFTFENGDIAVQMGTPTDCVYLGVNALMRPRPDIVVSGINAGPNLGDDVIYSGTVAAAMEGRHLGFPALAVSLDGHKHYDTAAAVTCSILRALCKEPLRTGRILNINVPDLPLDQIKGIRVTRCGTRHPADQVIPQQDPRGNTLYWIGPPGGKCDAGPGTDFAAVDEGYVSITPLHVDLTAHSAQDVVSDWLNSVGVGTQW [P0A840] .
Result: 4.1

Ask: Name the recorded total protein half-life in vivo for MRLGTFHKKKRFYINKIKINFLSFLFRNKINNQITDPAQVKSCLIIHDNNKLGDLIVLSSIYRELYSKGVKITLLTNRKGGEFLSNNKNIFEFCIKESTGFLEMLTLCKHLRDLQFDIVLDPFETMPSFKHSLILSSLKDSYILGFDHWYKRYYSFYHPHDECLKEHMSTRAIEILKHIYGEGKFSTNYDLHLPVDVEDKIKEFIGDTRIVIINPLGAKKICRLTFEQIKVIYQEVKTHFENYRIIFTGLPQDLLTIPILEIETLPFDEFIYTVALTKYSDFVISVDTALVHIAAAYHKPTLAFYPNSRTPEYPSHLIWSPNHHKSIQIVSPTYTVKDIDTETLTNSVKRLSCIDKK .
Result: 5.9

Ask: Name the recorded total protein half-life in vivo for MNIVITGGTGLIGRHLIPRLLELGHQITVVTRNPQKASSVLGPRVTLWQGLADQSNLNGVDAVINLAGEPIADKRWTHEQKERLCQSRWNITQKLVDLINASDTPPSVLISGSATGYYGDLGEVVVTEEEPPHNEFTHKLCARWEEIACRAQSDKTRVCLLRTGVVLAPDGGILGKMLPPFRLGLGGPIGSGRQYLAWIHIDDMVNGILWLLDNELRGPFNMVSPYPVRNEQFAHALGHALHRPAILRVPATAIRLLMGESSVLVLGGQRALPKRLEEAGFAFRWYDLEEALADVVR .
Result: 6.36

Ask: Name the recorded total protein half-life in vivo for MSSRNNPARVAIVMGSKSDWATMQFAAEIFEILNVPHHVEVVSAHRTPDKLFSFAESAEENGYQVIIAGAGGAAHLPGMIAAKTLVPVLGVPVQSAALSGVDSLYSIVQMPRGIPVGTLAIGKAGAANAALLAAQILATHDKELHQRLNDWRKAQTDEVLENPDPRGAA [P0AG18] .
Result: 4.8
